Attribute: shrunken log2 fold change
Tested on: Escherichia coli TOP10;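 further: peptides expressed intracellularly from a pBAD plasmid library in pooled LB shake-flask culture, induced with 0.3% L-arabinose, DNA abundance read by NGS, three biological replicates, DESeq2 with apeglm shrinkage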
PROCEDURE DETAILS: shrunken log2 fold change of peptide-encoding DNA abundance (4.5 h post-induction vs induction); higher = less antimicrobial activity (less host growth inhibition)
CONDITION LABEL: time post-induction: 4.5 h; library: site-saturation at positions 5, 18, 19, 20

CONSTRUCT SEQUENCE	MEASURED ON	shrunken log2 fold change
RRIRKRPPRLPRPRPRPRECPRP	Escherichia coli TOP10	-0.0199
RRIRTRPPRLPRPRPRPYTIPRP	Escherichia coli TOP10	-1.21
RRIRGRPPRLPRPRPRPKMWPRP	Escherichia coli TOP10	0.868
RRIRERPPRLPRPRPRPEEMPRP	Escherichia coli TOP10	0.0169
RRIRGRPPRLPRPRPRPMSGPRP	Escherichia coli TOP10	0.0585
RRIRCRPPRLPRPRPRPYGAPRP	Escherichia coli TOP10	-0.569
RRIRSRPPRLPRPRPRPPCYPRP	Escherichia coli TOP10	-0.145
RRIRYRPPRLPRPRPRPDSKPRP	Escherichia coli TOP10	-0.352
RRIRMRPPRLPRPRPRPKSGPRP	Escherichia coli TOP10	-0.101
RRIRSRPPRLPRPRPRPFVQPRP	Escherichia coli TOP10	-0.496
RRIRMRPPRLPRPRPRPRMNPRP	Escherichia coli TOP10	-0.138
RRIRMRPPRLPRPRPRPEEFPRP	Escherichia coli TOP10	0.0141
RRIRGRPPRLPRPRPRPICPPRP	Escherichia coli TOP10	0.114
RRIRLRPPRLPRPRPRPDITPRP	Escherichia coli TOP10	-0.00678
RRIRRRPPRLPRPRPRPGIVPRP	Escherichia coli TOP10	-0.0478
RRIRKRPPRLPRPRPRPIYAPRP	Escherichia coli TOP10	0.144
RRIRARPPRLPRPRPRPPVVPRP	Escherichia coli TOP10	0.378
RRIRDRPPRLPRPRPRPEPQPRP	Escherichia coli TOP10	0.0781
RRIRVRPPRLPRPRPRPKCFPRP	Escherichia coli TOP10	-0.213
RRIRVRPPRLPRPRPRPRNFPRP	Escherichia coli TOP10	-0.275
RRIRWRPPRLPRPRPRPFEGPRP	Escherichia coli TOP10	-0.0062
RRIRPRPPRLPRPRPRPTNEPRP	Escherichia coli TOP10	0.0205
RRIRHRPPRLPRPRPRPGRCPRP	Escherichia coli TOP10	0.127
RRIRCRPPRLPRPRPRPLHQPRP	Escherichia coli TOP10	-0.168
RRIRFRPPRLPRPRPRPKNGPRP	Escherichia coli TOP10	-0.0366
RRIRYRPPRLPRPRPRPWYNPRP	Escherichia coli TOP10	-0.764
RRIRRRPPRLPRPRPRPRDYPRP	Escherichia coli TOP10	-0.116
RRIRTRPPRLPRPRPRPWNDPRP	Escherichia coli TOP10	-0.271
RRIRTRPPRLPRPRPRPRMRPRP	Escherichia coli TOP10	0.753
RRIRRRPPRLPRPRPRPHLDPRP	Escherichia coli TOP10	0.176
RRIRKRPPRLPRPRPRPRIWPRP	Escherichia coli TOP10	0.434
RRIRKRPPRLPRPRPRPRFNPRP	Escherichia coli TOP10	0.0969
RRIRCRPPRLPRPRPRPDWRPRP	Escherichia coli TOP10	0.243
RRIRERPPRLPRPRPRPFFDPRP	Escherichia coli TOP10	0.0568
RRIRWRPPRLPRPRPRPWQLPRP	Escherichia coli TOP10	-0.18
RRIRPRPPRLPRPRPRPPFCPRP	Escherichia coli TOP10	0.317
RRIRPRPPRLPRPRPRPDNDPRP	Escherichia coli TOP10	0.0931
RRIRNRPPRLPRPRPRPSIHPRP	Escherichia coli TOP10	-0.185
RRIRGRPPRLPRPRPRPWGCPRP	Escherichia coli TOP10	0.702
RRIRVRPPRLPRPRPRPEYDPRP	Escherichia coli TOP10	-0.0844
RRIRVRPPRLPRPRPRPDQVPRP	Escherichia coli TOP10	-0.202
RRIRGRPPRLPRPRPRPCHMPRP	Escherichia coli TOP10	-0.00127
RRIRFRPPRLPRPRPRPDTWPRP	Escherichia coli TOP10	0.0899
RRIRTRPPRLPRPRPRPNFYPRP	Escherichia coli TOP10	-0.186
RRIRQRPPRLPRPRPRPKASPRP	Escherichia coli TOP10	-0.0573
RRIRMRPPRLPRPRPRPNWQPRP	Escherichia coli TOP10	0.00599
RRIRLRPPRLPRPRPRPWYKPRP	Escherichia coli TOP10	-0.0396
RRIRNRPPRLPRPRPRPECQPRP	Escherichia coli TOP10	0.00386
RRIRNRPPRLPRPRPRPNELPRP	Escherichia coli TOP10	0.106
RRIRDRPPRLPRPRPRPWAVPRP	Escherichia coli TOP10	-0.066
RRIRKRPPRLPRPRPRPSWPPRP	Escherichia coli TOP10	0.321
RRIRIRPPRLPRPRPRPVCRPRP	Escherichia coli TOP10	1.56
RRIRKRPPRLPRPRPRPDADPRP	Escherichia coli TOP10	0.163
RRIRYRPPRLPRPRPRPWRAPRP	Escherichia coli TOP10	-0.142
RRIRLRPPRLPRPRPRPVMFPRP	Escherichia coli TOP10	-0.268
